# EXPERIMENTAL_DETAILS: Pharmacokinetics study, subcutaneous apixaban injection (Embodiment 4)
# Format: in vivo, humans
# RUN_PARAMETERS: human, plasma, sc, 2.5 mg, plasma drug concentration of apixaban, subject C-02; Time 24 h; 1 mL of 2.5 mg/mL apixaban injection subcutaneously
MEASURED_ATTRIBUTE: concentration at 24 h (µg/mL)
Just the number in µg/mL, nothing appended.

The molecule listed as COc1ccc(-n2nc(C(N)=O)c3c2C(=O)N(c2ccc(N4CCCCC4=O)cc2)CC3)cc1 shows concentration at 24 h equal to 0.0114

* * *

# EXPERIMENTAL_DETAILS: Pharmacokinetics study, subcutaneous apixaban injection (Embodiment 4)
# Assay type: in vivo, humans
# RUN_PARAMETERS: human, plasma, sc, 2.5 mg, plasma drug concentration of apixaban, subject C-01; Time 1 h; 1 mL of 2.5 mg/mL apixaban injection subcutaneously
MEASURED_ATTRIBUTE: concentration at 1 h

The compound listed as COc1ccc(-n2nc(C(N)=O)c3c2C(=O)N(c2ccc(N4CCCCC4=O)cc2)CC3)cc1 [apixaban, Apixaban] shows concentration at 1 h equal to 35.8 ng/mL

* * *

# EXPERIMENTAL_DETAILS: Pharmacokinetics study, subcutaneous apixaban injection (Embodiment 4)
# Format: in vivo, humans
# RUN_PARAMETERS: human, plasma, sc, 2.5 mg, plasma drug concentration of apixaban, Mean of three subjects; Time 24 h; 1 mL of 2.5 mg/mL apixaban injection subcutaneously
MEASURED_ATTRIBUTE: concentration at 24 h (ng/mL)
Just the number in ng/mL, nothing appended.

The molecule listed as COc1ccc(-n2nc(C(N)=O)c3c2C(=O)N(c2ccc(N4CCCCC4=O)cc2)CC3)cc1 shows concentration at 24 h equal to 13.8

* * *

# EXPERIMENTAL_DETAILS: Pharmacokinetics study, subcutaneous apixaban injection (Embodiment 4)
# Assay type: in vivo, humans
# RUN_PARAMETERS: human, plasma, sc, 2.5 mg, plasma drug concentration of apixaban, Mean of three subjects; Time 0.25 h; 1 mL of 2.5 mg/mL apixaban injection subcutaneously
MEASURED_ATTRIBUTE: concentration at 0.25 h (ng/mL)
Just the number in ng/mL, nothing appended.

The molecule listed as COc1ccc(-n2nc(C(N)=O)c3c2C(=O)N(c2ccc(N4CCCCC4=O)cc2)CC3)cc1 shows concentration at 0.25 h equal to 6.19

* * *

# EXPERIMENTAL_DETAILS: Pharmacokinetics study, subcutaneous apixaban injection (Embodiment 4)
# Type: in vivo, humans
# RUN_PARAMETERS: human, plasma, sc, 2.5 mg, plasma drug concentration of apixaban, subject C-01; Time 0 h; 1 mL of 2.5 mg/mL apixaban injection subcutaneously
MEASURED_ATTRIBUTE: concentration at 0 h (ng/mL)
Just the number in ng/mL, nothing appended.

The compound listed as COc1ccc(-n2nc(C(N)=O)c3c2C(=O)N(c2ccc(N4CCCCC4=O)cc2)CC3)cc1 shows concentration at 0 h equal to 0

* * *

# EXPERIMENTAL_DETAILS: Pharmacokinetics study, subcutaneous apixaban injection (Embodiment 4)
# Format: in vivo, humans
# RUN_PARAMETERS: human, plasma, sc, 2.5 mg, plasma drug concentration of apixaban, Mean of three subjects; Time 0 h; 1 mL of 2.5 mg/mL apixaban injection subcutaneously
MEASURED_ATTRIBUTE: concentration at 0 h (ng/mL)
Just the number in ng/mL, nothing appended.

The compound listed as COc1ccc(-n2nc(C(N)=O)c3c2C(=O)N(c2ccc(N4CCCCC4=O)cc2)CC3)cc1 [apixaban, Apixaban] shows concentration at 0 h equal to 0
